system: Tel-TRKC (Homo sapiens, UniProt Q16288)
Sequence (Q16288 530-839): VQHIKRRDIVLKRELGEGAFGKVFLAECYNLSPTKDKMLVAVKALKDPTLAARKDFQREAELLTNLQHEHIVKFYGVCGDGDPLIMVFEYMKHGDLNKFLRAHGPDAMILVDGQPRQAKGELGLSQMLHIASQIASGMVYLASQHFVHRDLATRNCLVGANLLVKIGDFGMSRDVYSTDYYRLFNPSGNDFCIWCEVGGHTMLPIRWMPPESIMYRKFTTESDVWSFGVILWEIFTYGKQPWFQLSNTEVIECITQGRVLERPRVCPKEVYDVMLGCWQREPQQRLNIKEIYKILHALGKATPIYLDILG
Sequence (P41212 1-336 partner): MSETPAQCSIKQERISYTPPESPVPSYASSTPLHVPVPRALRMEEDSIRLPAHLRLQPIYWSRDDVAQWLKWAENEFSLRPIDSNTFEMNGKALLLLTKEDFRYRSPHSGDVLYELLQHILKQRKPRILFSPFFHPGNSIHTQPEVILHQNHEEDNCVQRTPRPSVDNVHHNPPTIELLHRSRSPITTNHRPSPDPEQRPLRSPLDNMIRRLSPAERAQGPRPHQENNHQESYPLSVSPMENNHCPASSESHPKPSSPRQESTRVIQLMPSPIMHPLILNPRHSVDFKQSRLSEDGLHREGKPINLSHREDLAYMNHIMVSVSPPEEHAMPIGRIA
assayNotes: IC50 for Tel-TRKC (method not described)
experimentalEndpoint: IC50 (nM)
Write the answer as a number in nM, unit excluded.

Give the reported IC50 for this molecule. COc1cc(Nc2ncc3ccn(-c4cccc(CC#N)c4)c3n2)cc(OC)c1OC [example 104]
479

---

system: BCR-Abl (Homo sapiens, UniProt P00519)
Construct: the other entry of the earlier key: BCR (P11274, Breakpoint cluster region protein)
Sequence (P00519 229-512 limits assumed): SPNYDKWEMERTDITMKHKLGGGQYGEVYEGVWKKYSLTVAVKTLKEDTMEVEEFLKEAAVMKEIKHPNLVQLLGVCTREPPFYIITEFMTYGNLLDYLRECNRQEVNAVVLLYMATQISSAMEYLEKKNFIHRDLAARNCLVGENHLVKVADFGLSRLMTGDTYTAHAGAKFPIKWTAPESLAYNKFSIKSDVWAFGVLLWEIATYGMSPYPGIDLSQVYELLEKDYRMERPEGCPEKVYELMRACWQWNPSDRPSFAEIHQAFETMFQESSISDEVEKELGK
assayNotes: Inhibition of cellular BCR-Abl dependent proliferation (32D-p210 cells)
experimentalEndpoint: IC50
Write the figure, then the unit, nothing else.

GET IC50 | system: BCR-Abl (Homo sapiens, UniProt P00519) | item: COc1ccc(Nc2ncc3ccn(-c4ccnc(Cl)c4)c3n2)c(C)c1
408 nM
